# SUBJECT_OF_TEST: Androgen Receptor (AR) protein (Homo sapiens, UniProt P10275, T878A)
# Construct: endogenous in cells; host or cells: LNCaP
# Sequence (P10275 whole entry T878A): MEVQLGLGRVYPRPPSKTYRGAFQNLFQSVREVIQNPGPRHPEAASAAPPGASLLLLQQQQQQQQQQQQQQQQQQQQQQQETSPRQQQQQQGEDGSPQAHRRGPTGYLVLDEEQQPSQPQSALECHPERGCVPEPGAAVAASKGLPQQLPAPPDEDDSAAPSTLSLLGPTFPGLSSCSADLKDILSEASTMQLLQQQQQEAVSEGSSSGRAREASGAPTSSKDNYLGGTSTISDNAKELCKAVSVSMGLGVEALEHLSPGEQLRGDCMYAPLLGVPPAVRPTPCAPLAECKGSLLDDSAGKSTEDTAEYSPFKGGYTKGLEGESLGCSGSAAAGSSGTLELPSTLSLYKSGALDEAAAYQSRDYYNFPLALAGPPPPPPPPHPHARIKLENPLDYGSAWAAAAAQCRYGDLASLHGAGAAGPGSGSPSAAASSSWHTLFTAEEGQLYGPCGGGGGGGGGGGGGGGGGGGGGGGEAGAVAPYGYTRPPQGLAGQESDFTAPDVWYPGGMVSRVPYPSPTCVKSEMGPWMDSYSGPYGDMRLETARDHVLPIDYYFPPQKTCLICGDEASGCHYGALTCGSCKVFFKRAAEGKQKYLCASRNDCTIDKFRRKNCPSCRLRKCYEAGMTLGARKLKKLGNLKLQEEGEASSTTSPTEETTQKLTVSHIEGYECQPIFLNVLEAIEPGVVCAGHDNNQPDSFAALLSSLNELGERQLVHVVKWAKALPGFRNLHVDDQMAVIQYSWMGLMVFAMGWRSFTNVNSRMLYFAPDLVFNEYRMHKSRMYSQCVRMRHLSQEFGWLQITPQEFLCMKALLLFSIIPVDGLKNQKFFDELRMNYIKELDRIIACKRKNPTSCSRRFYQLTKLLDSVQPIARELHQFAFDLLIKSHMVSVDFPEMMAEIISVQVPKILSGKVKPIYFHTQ
# Sequence (Q96SW2 whole entry partner): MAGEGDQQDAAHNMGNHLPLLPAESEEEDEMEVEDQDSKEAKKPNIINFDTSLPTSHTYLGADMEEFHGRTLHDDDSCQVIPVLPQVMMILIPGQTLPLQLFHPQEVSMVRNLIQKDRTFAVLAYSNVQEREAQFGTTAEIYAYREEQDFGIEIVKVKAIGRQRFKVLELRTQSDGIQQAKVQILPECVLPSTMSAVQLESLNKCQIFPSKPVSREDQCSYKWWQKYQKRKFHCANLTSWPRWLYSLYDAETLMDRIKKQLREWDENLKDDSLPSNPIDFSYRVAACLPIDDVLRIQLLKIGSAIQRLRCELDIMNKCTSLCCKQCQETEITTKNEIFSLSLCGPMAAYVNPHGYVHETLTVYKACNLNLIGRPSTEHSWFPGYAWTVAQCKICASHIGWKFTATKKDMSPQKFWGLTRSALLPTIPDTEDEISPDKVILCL
# METHOD_NOTES: Androgen Receptor (AR) protein degradation assay in LNCaP cells, western blotting
# Format: cell-based
# RUN_CONDITIONS: 20 h, 0.01 μM compound
QUANTITY: inhibition at 0.01 µM (%)

N#Cc1ccc(N2CCC(C(=O)Nc3ccc(N4CCC(CCN5CCN(c6cc7c(cc6F)C(=O)N(C6CCC(=O)NC6=O)C7=O)CC5)CC4)cn3)CC2)cc1C(F)(F)F (stereo not drawn); -11
N#Cc1ccc(N2CCC(C(=O)Nc3ccc(N4CCC(CCN5CC(N6CCN(c7ccc8c(n7)CN(C7CCC(=O)NC7=O)C8=O)CC6)C5)CC4)cn3)CC2)cc1C(F)(F)F (stereo not drawn); 48
N#Cc1ccc(N2CCC(C(=O)Nc3ccc(N4CC(CN5CCC(COc6ccc7c(c6)C(=O)N(C6CCC(=O)NC6=O)C7=O)CC5)C4)cn3)CC2)cc1C(F)(F)F (stereo not drawn); 56

----------
Recorded measurements of inhibition at 0.1 µM, one per entry
# SUBJECT_OF_TEST: Androgen Receptor (AR) protein (Homo sapiens, UniProt P10275, T878A)
# Construct: endogenous in cells; host or cells: LNCaP
# METHOD_NOTES: Androgen Receptor (AR) protein degradation assay in LNCaP cells, western blotting
# Format: cell-based
# RUN_CONDITIONS: 20 h, 0.1 μM compound
# Method: Experimental Example 1: Androgen Receptor (AR) Protein Degradation Assay After treating LNCaP cells with the synthesized Example compound, the amount of AR protein present in the cells was measured. The amount of AR protein was measured using western blotting detection method. […] [Protein quantification] […] Then, absorbance was measured at a wavelength of 562 nm. The unknown protein concentration was measured using a BSA standard curve (0, 0.125, 0.25, 0.5, 1, 2 mg/ml). […]
QUANTITY: inhibition at 0.1 µM (%)

N#Cc1ccc(N2CCC(F)(C(=O)Nc3ccc(N4CCC(CN5CC6(CCN(c7ccc8c(c7)CN(C7CCC(=O)NC7=O)C8=O)CC6)C5)CC4)cn3)CC2)cc1C(F)(F)F (centres unmarked) [Example 136]; 92
N#Cc1ccc(N2CCC(C(=O)Nc3ccc(N4CCC(CCN5CCN(C6CN(c7ccc8c(c7)C(=O)N(C7CCC(=O)NC7=O)C8=O)C6)CC5)CC4)cn3)CC2)cc1C(F)(F)F (centres unmarked) [Example 99]; 98
N#Cc1ccc(N2CCC(C(=O)Nc3ccc(N4CCC(CN5CC6(CCN(c7ccc8c(c7)C(=O)N(C7CCC(=O)NC7=O)C8=O)CC6)C5)CC4)nc3)CC2)cc1Cl (centres unmarked) [Example 60]; 32
N#Cc1ccc(N2CCC(C(=O)Nc3ccc(N4CCC(OCCN5CCN(c6ccc7c(c6)C(=O)N(C6CCC(=O)NC6=O)C7=O)CC5)CC4)cn3)CC2)cc1C(F)(F)F (centres unmarked) [Example 150]; 97
N#Cc1ccc(N2CCN(C(=O)Nc3ccc(N4CCC(CN5CC6(CCN(c7ccc8c(c7)C(=O)N(C7CCC(=O)NC7=O)C8=O)CC6)C5)CC4)nc3)CC2)cc1Cl (centres unmarked) [Example 104]; -5
N#Cc1ccc(N2CCC(C(=O)Nc3ccc(N4CC5(CCN(CC6CCN(c7ccc8c(c7)C(=O)N(C7CCC(=O)NC7=O)C8=O)CC6)CC5)C4)cn3)CC2)cc1Cl (centres unmarked) [Example 122]; 76
N#Cc1ccc(N2CCC(C(=O)Nc3ccc(N4CCC(CN5CCC6(CC5)CCN(c5ccc7c(c5)C(=O)N(C5CCC(=O)NC5=O)C7=O)CC6)CC4)cn3)CC2)cc1C(F)(F)F (centres unmarked) [Example 68]; 91
N#Cc1ccc(N2CCC(C(=O)Nc3ccc(N4CC5(CCN(CC6CCN(c7ccc8c(c7)C(=O)N(C7CCC(=O)NC7=O)C8=O)CC6)CC5)C4)cn3)CC2)cc1C(F)(F)F (centres unmarked) [Example 121]; 98
N#Cc1ncc(N2CCC(C(=O)Nc3ccc(N4CCC(CN5CCN(CC6CCN(c7ccc8c(c7)C(=O)N(C7CCC(=O)NC7=O)C8=O)CC6)CC5)CC4)cn3)CC2)cc1C(F)(F)F (centres unmarked) [Example 9]; 95
N#Cc1ccc(N2CCC(C(=O)Nc3ccc(N4CCC(CN5CCN(C6CCN(c7ccc8c(c7)C(=O)N(C7CCC(=O)NC7=O)C8=O)CC6)CC5)CC4)cn3)CC2)cc1Cl (centres unmarked) [Example 71]; 97
N#Cc1ccc(N2CCC(C(=O)Nc3ccc(N4CC5(CCN(CC6CN(c7ccc8c(c7)C(=O)N(C7CCC(=O)NC7=O)C8=O)C6)CC5)C4)cn3)CC2)cc1C(F)(F)F (centres unmarked) [Example 123]; 91

----------
# SUBJECT_OF_TEST: Androgen Receptor (AR) protein (Homo sapiens, UniProt P10275, T878A)
# Construct: endogenous in cells; host or cells: LNCaP
# METHOD_NOTES: Androgen Receptor (AR) protein degradation assay in LNCaP cells, western blotting
# Type: cell-based
# RUN_CONDITIONS: 20 h, 10 μM compound
# Description: Experimental Example 1: Androgen Receptor (AR) Protein Degradation Assay After treating LNCaP cells with the synthesized Example compound, the amount of AR protein present in the cells was measured. The amount of AR protein was measured using western blotting detection method. […] [Protein quantification] […] Then, absorbance was measured at a wavelength of 562 nm. The unknown protein concentration was measured using a BSA standard curve (0, 0.125, 0.25, 0.5, 1, 2 mg/ml). […]
QUANTITY: inhibition at 10 µM (%)

N#Cc1ccc(N2CCC(C(=O)Nc3ccc(N4CCC(CN5CCC6(CC5)CN(c5ccc7c(c5)C(=O)N(C5CCC(=O)NC5=O)C7=O)C6)CC4)cn3)CC2)cc1C(F)(F)F (stereo not drawn); 94.5
N#Cc1ccc(N2CCC(C(=O)Nc3ccc(N4CCC(CN5CCC6(CC5)CN(c5ccc7c(c5)C(=O)N(C5CCC(=O)NC5=O)C7=O)C6)CC4)cn3)CC2)cc1Cl (stereo not drawn); 98.5
N#Cc1ccc(N2CCC(C(=O)Nc3ccc(N4CCC(CN5CC6(C5)CN(c5ccc7c(c5)C(=O)N(C5CCC(=O)NC5=O)C7=O)C6)CC4)cn3)CC2)cc1Cl (stereo not drawn); 86
N#Cc1ccc(N2CCC(C(=O)Nc3ccc(C#CC4CCN(CC5CN(c6ccc7c(c6)C(=O)N(C6CCC(=O)NC6=O)C7=O)C5)CC4)cn3)CC2)cc1C(F)(F)F (stereo not drawn); 77
N#Cc1ccc(N2CCC(C(=O)Nc3ccc(N4CCC(CN5CCN(CC6CCN(c7ccc8c(c7)C(=O)N(C7CCC(=O)NC7=O)C8=O)CC6)CC5)CC4)cn3)CC2)cc1C(F)(F)F (stereo not drawn); 97
N#Cc1ccc(N2CCC(C(=O)Nc3ccc(N4CCC(CN5CCN(C(=O)CNc6ccc7c(c6)C(=O)N(C6CCC(=O)NC6=O)C7=O)CC5)CC4)cn3)CC2)cc1C(F)(F)F (stereo not drawn); 97
N#Cc1ccc(N2CCC(C(=O)Nc3ccc(N4CCC(CN5CC6(C5)CN(c5ccc7c(c5)C(=O)N(C5CCC(=O)NC5=O)C7=O)C6)CC4)cn3)CC2)cc1C(F)(F)F (stereo not drawn); 94
N#Cc1ccc(N2CCN(C(=O)Nc3ccc(N4CCC(CN5CC6(CCN(c7ccc8c(c7)C(=O)N(C7CCC(=O)NC7=O)C8=O)CC6)C5)CC4)nc3)CC2)cc1C(F)(F)F (stereo not drawn); 58
N#Cc1ccc(N2CCC(C(=O)Nc3ccc(C#CC4CCN(CC5CCN(c6ccc7c(c6)C(=O)N(C6CCC(=O)NC6=O)C7=O)CC5)CC4)cn3)CC2)cc1C(F)(F)F (stereo not drawn); 87
N#Cc1ccc(N2CCC(C(=O)Nc3ccc(N4CCC(CN5CC6(CCN(c7ccc8c(c7)C(=O)N(C7CCC(=O)NC7=O)C8=O)CC6)C5)CC4)nc3)CC2)cc1Cl (stereo not drawn); 66
N#Cc1ccc(N2CCC(C(=O)Nc3ccc(N4CCC(CN5CCN(c6ccc7c(c6)C(=O)N(C6CCC(=O)NC6=O)C7=O)CC5)CC4)cn3)CC2)cc1C(F)(F)F (stereo not drawn); 99
N#Cc1ccc(N2CCC(C(=O)Nc3ccc(N4CCN(C(=O)CCCCCNc5ccc6c(c5)C(=O)N(C5CCC(=O)NC5=O)C6=O)CC4)cn3)CC2)cc1Cl (stereo not drawn); 48
N#Cc1ccc(N2CCC(C(=O)Nc3ccc(N4CCC(CN5CCN(CC6CN(c7ccc8c(c7)C(=O)N(C7CCC(=O)NC7=O)C8=O)C6)CC5)CC4)cn3)CC2)cc1C(F)(F)F (stereo not drawn); 93
N#Cc1ccc(N2CCC(C(=O)Nc3ccc(N4CCC(CN5CCN(CC6CN(c7ccc8c(c7)C(=O)N(C7CCC(=O)NC7=O)C8=O)C6)CC5)CC4)cn3)CC2)cc1Cl (stereo not drawn); 94
N#Cc1ccc(N2CCC(C(=O)Nc3ccc(N4CCN(C(=O)CCCCCNc5ccc6c(c5)C(=O)N(C5CCC(=O)NC5=O)C6=O)CC4)cn3)CC2)cc1C(F)(F)F (stereo not drawn); 67
